Hey, just so you know, these numbers are from PubChem BioAssay (Tox21).

# measurement.description: qHTS assay to identify small molecule antagonists of the progesterone receptor (PR) signaling pathway - cell viability counter screen (AID 1346798);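 also: HEK293T PR-UAS-bla cells stimulated with the agonist R5020; % is scaled to controls: 0 for no effect and ±100 for the full control effect; nearly all actives have a fitted effect of over 50% in size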
# setup.conditions: PR-UAS-bla HEK293T viability, CellTiter-Glo luminescence, 16 h; series mostly up to 92.4 µM
Results filed as inconclusive are left out. Activity calls are given as the source filed them. Calls follow the shape of the dose curve; as a rule, active = well fitted cell-killing curve with a large enough effect in the repeat runs; inconclusive = weak or mixed curves, or effect the other way; inactive = no such curve, though single readings can be large or run the other way.
test.readout: outcome

chem.smiles: CCN(CCC#N)c1ccc(N=Nc2c(Cl)cc([N+](=O)[O-])cc2Cl)cc1
test.readout: outcome
recorded.value: inactive
--
chem.smiles: CSc1ccc(/C=C2/C(C)=C(CC(=O)O)c3cc(F)ccc32)cc1
test.readout: outcome
recorded.value: inactive
--
chem.smiles: CCCC(=O)OC[C@@H](OC(=O)CCC)[C@@H](OC(=O)CCC)[C@H](Cn1c2nc(=O)[nH]c(=O)c-2nc2cc(C)c(C)cc21)OC(=O)CCC
test.readout: outcome
recorded.value: inactive

---

# measurement.description: A CellTox Green Cytotoxicity Assay to monitor cytotoxicity in HEK293 cells - 16 hour (AID 1224888); also: nearly all actives have a fitted effect of over 35% in size
# setup.conditions: CellTox Green fluorescence; series mostly up to 76.8 µM
Records with an inconclusive call do not appear. Activity calls are given as the source filed them. Calls follow the shape of the dose curve; as a rule, active = well fitted activation curve with a large enough effect in the repeat runs; inconclusive = weak or mixed curves; inactive = flat fitted curve, though single readings scatter.
Would you mind answering with one of these outcomes? 1 (yes) = active, 0 (no) = inactive

compound: O=C(O)c1c(Cl)cccc1Cl
assigned.label: 0 (no)

(Q) Hi team, can someone confirm the assay call for C1CCCC1 ?
(A) 0 (no)

(Q) Status in this test for CC(=O)OCC(C)OC(C)=O (configuration not stated) ?
(A) 0 (no)

(Q) For Nc1ccc2c3c(cccc13)-c1ccccc1-2 , what call appears in the results of this test?
(A) 1 (yes)

(Q) Look up the recorded call for CCC(C)(C)C1CCCCC1OC(C)=O (configuration not stated) in this test.
(A) 0 (no)

(Q) # lookup: test call for CC(C)(C)C(=O)OCOC(=O)[C@@H]1N2C(=O)[C@@H](NC(=O)[C@H](N)c3ccccc3)[C@H]2SC1(C)C
(A) 0 (no)

(Q) Dear all, I need the recorded test outcome for Cc1cccc(N(C)C(=S)Oc2ccc3c(c2)C2CCC3C2)c1 (configuration not stated) , thank you.
(A) 0 (no)

(Q) Recorded test call requested for CC[C@@]1(O)C(=O)OCc2c1cc1n(c2=O)Cc2c-1nc1ccccc1c2/C=N/OC(C)(C)C
(A) 0 (no)

(Q) In this assay, the call recorded for O=C(NO)C1(NS(=O)(=O)c2ccc(Oc3ccc(F)cc3)cc2)CCOCC1 was what?
(A) 0 (no)

---

# measurement.description: A CellTox Green Cytotoxicity Assay to monitor cytotoxicity in HepG2 cells - 32 hour (AID 1224883); also: nearly all actives have a fitted effect of over 50% in size
# setup.conditions: CellTox Green fluorescence; series mostly up to 76.8 µM
Results filed as inconclusive are left out. Activity calls are given as the source filed them. Calls follow the shape of the dose curve; as a rule, active = well fitted activation curve with a large enough effect in the repeat runs; inconclusive = weak or mixed curves; inactive = flat fitted curve, though single readings scatter.
The categories you may choose from are true (1) for active, false (0) for inactive

Example cases with answers are listed next.
compound: CCCCCCCC(=O)[O-].CCCCCCCC(=O)[O-].[Zn+2]
assigned.label: false (0)
--
compound: Nc1ccccc1O
assigned.label: false (0)
--
compound: CC(C)n1nc(-c2cc3cc(O)ccc3[nH]2)c2c(N)ncnc21
assigned.label: true (1)
--
compound: O=C1CCCc2c1cc1ccc3cccc4ccc2c1c34
assigned.label: false (0)
--
compound: CCN(CC)CCCC(C)Nc1c2ccc(Cl)cc2nc2ccc(OC)cc12 (stereo unspecified)
assigned.label: true (1)

(Q) Recorded test call requested for CN1CCC(Nc2ncc3ncnc(Nc4ccc(F)c(Cl)c4)c3n2)CC1
(A) true (1)

---

# measurement.description: qHTS assay to identify small molecule antagonists of the peroxisome proliferator-activated receptor delta (PPARd) signaling pathway - cell viability counter screen (AID 743213); also: nearly all actives have a fitted effect of over 50% in size
# setup.conditions: PPARd-bla HEK293H viability, CellTiter-Glo luminescence, 17 h; series mostly up to 62 µM
Inconclusive results are not listed. Calls of active or inactive are those of the source. Calls follow the shape of the dose curve; as a rule, active = well fitted cell-killing curve with a large enough effect in the repeat runs; inconclusive = weak or mixed curves; inactive = no such curve, though single readings can be large or run the other way.
Respond using exactly one of the listed classes: 1.0 for active, 0.0 for inactive

molecule: CCN(CC)CCCC(C)Nc1c2ccc(Cl)cc2nc2ccc(OC)cc12 (stereo not given)
assigned.label: 1.0

molecule: CCCCCCCCCCCCCCCC(=O)OC[C@H](O)[C@H]1OC(=O)C(O)=C1O
assigned.label: 0.0

molecule: CN(C)[C@@H]1C(=O)C(C(N)=O)=C(O)[C@@]2(O)C(=O)C3=C(O)c4c(O)cccc4C[C@H]3C[C@@H]12
assigned.label: 0.0

(Q) Test call for this molecule, please: CCCCCCCCCOC(=O)c1ccc(O)cc1
(A) 1.0

(Q) Dear all, I need the recorded test outcome for CC1=C(/C=C/C(C)=C/C=C/C(C)=C/C=O)C(C)(C)CCC1 , thank you.
(A) 1.0

---

# measurement.description: qHTS assay for small molecule agonists of the p53 signaling pathway - cell viability (AID 651633); also: nearly all actives have a fitted effect of over 30% in size; also: potency is read from the fitted curve at half-maximal effect
# setup.conditions: p53RE-bla HCT-116 viability, ATP luminescence, 16 h; series mostly up to 83.3 µM
# Excerpt: National Center for Advancing Translational Sciences [NCATS] NIH Chemical Genomics Center [NCGC] U.S. Environmental Protection Agency [EPA] National Institutes of Environmental Health Sciences [NIEHS] National Toxicology Program [NTP] U.S. Food and Drug Administration [FDA] p53, a tumor suppressor protein, is activated following cellular insult, including DNA damage and other cellular stresses. […] The activation of the reporter gene under culture conditions can be detected by fluorescence intensity. […]
Inconclusive results are not listed. Active and inactive are the calls of the source. The call rests on the fitted dose curve.
test.readout: Potency

Please review the entries below; each comes with its answer.
compound: CCCCCCCCCCCCCC[P+](CCCC)(CCCC)CCCC (tested in a mixture with another compound)
Potency: 27.5 µM (active)

compound: CSc1ccc(C(=O)c2[nH]c(=O)[nH]c2C)cc1
Potency: inactive

compound: CCCCCCCCNC(C)C(O)c1ccc(SC(C)C)cc1 (stereo not drawn)
Potency: 10.6 µM (active)

compound: CN(C)c1ccc(SC#N)cc1
Potency: inactive

compound: Cc1c(C)c2c(c(C)c1OC(=O)CCC(=O)O)CC[C@@](C)(CCC[C@H](C)CCC[C@H](C)CCCC(C)C)O2
Potency: inactive

compound: CCCC(c1cc(C(C)(C)C)c(O)cc1C)c1cc(C(C)(C)C)c(O)cc1C
Potency: 17.4 µM (active)

compound: c1cc(C(c2ccc(OCC3CO3)cc2)c2ccc(OCC3CO3)cc2)ccc1OCC1CO1 (stereo not drawn)
Potency: inactive

Next, consider the following compound.
(Q) In one line, give reported Potency of the entry CCCCCCCCS(=O)C(C)Cc1ccc2c(c1)OCO2 (stereo not drawn) .
(A) inactive

---

# measurement.description: qHTS assay for small molecule disruptors of the mitochondrial membrane potential (AID 720635)
# setup.conditions: HepG2 mitochondrial membrane potential, Mito-MPS dye ratio; series mostly up to 83.2 µM
Records with an inconclusive call do not appear. Activity calls are given as the source filed them. Calls come from the whole dose curve; as a rule, active = well fitted inhibition curve with a large enough effect in the signal ratio in the repeat runs; inconclusive = weak or mixed curves, or effect the other way; inactive = flat fitted curve, though single readings scatter; the % refers to the signal ratio.
Choose the fitting class; nothing outside class 1 = active, class 0 = inactive is accepted.

chem.smiles: NNc1nc(-c2ccc([N+](=O)[O-])cc2)cs1
assigned.label: class 1
--
chem.smiles: CS(=O)(=O)CCNCc1ccc(-c2ccc3ncnc(Nc4ccc(OCc5cccc(F)c5)c(Cl)c4)c3c2)o1
assigned.label: class 0
--
chem.smiles: CCCCCCCCCCCCCCCC[N+](C)(C)CCN(Cc1ccc(OC)cc1)c1ncccn1
assigned.label: class 1
--
chem.smiles: O=C(NOCC1CC1)c1ccc(F)c(F)c1Nc1ccc(I)cc1Cl
assigned.label: class 1
--
chem.smiles: Nc1ccc(N)c2ccccc12
assigned.label: class 1
--
chem.smiles: CCc1cc(Cc2cc(CC)cc(C(C)(C)C)c2O)c(O)c(C(C)(C)C)c1
assigned.label: class 1
--
chem.smiles: [Cl][Bi]([Cl])([c]1ccccc1)([c]1ccccc1)[c]1ccccc1
assigned.label: class 1
--
chem.smiles: CN(C)c1ccc(C2(c3ccc(N(C)C)cc3)OC(=O)c3cc(N(C)C)ccc32)cc1
assigned.label: class 1

(Q) GET /call?item= CCOc1ccc2nc3cc(N)ccc3c(N)c2c1 returns the recorded outcome of this test.
(A) class 1

(Q) Which outcome was assigned to N#CSc1ccc(N)c([N+](=O)[O-])c1 in this test?
(A) class 1

(Q) Recorded call for CSc1cnc(C)cn1 ?
(A) class 0

---

# measurement.description: qHTS assay for identifying genotoxic compounds that show differential cytotoxicity against isogenic chicken DT40 cell lines with known DNA damage response pathways - wild type cell line (AID 743012); also: nearly all actives have a fitted effect of over 60% in size
# setup.conditions: DT40 wild type chicken cells viability, CellTiter-Glo, 40 h; series mostly up to 68.4 µM
Records with an inconclusive call do not appear. Activity calls are given as the source filed them. Calls follow the shape of the dose curve; as a rule, active = well fitted cell-killing curve with a large enough effect in the repeat runs; inconclusive = weak or mixed curves, or effect the other way; inactive = no such curve, though single readings can be large or run the other way.
Outcome field: choose from active, inactive

Answered examples (2):
molecule: CCCN(CCC)C(=O)C(CCC(=O)OCCCN1CCN(CCOC(=O)Cc2c(C)n(C(=O)c3ccc(Cl)cc3)c3ccc(OC)cc23)CC1)NC(=O)c1ccccc1 (stereo not given)
assigned.label: active

molecule: CC(C)C(C)(C)C(C)(C)C(C)(C)S
assigned.label: inactive

(Q) Dear all, I need the recorded test outcome for CCOC(=O)/C=C(C)/C=C/C=C(C)/C=C/c1c(C)cc(OC)c(C)c1C , thank you.
(A) active

(Q) Could you please tell me the result logged for CSc1ccc(C(=O)c2[nH]c(=O)[nH]c2C)cc1 in this assay?
(A) inactive

(Q) Recorded call for CCCC(C)c1ccccc1O (stereo not given) ?
(A) active
